- experiment-description: Pharmacokinetic assay in Balb/c mice (plasma and brain tissue)
- Type: in vivo
- measurement-parameters: male, Balb/c, mouse, po, Brain, p.o. 5 mg/kg, read-out: Area under curve AUC0-∞
Overview of reported AUC(0-inf) across a group of compounds:
Report as a plain number; the unit ng·h/mL is understood.

stdin: Answer with the recorded AUC(0-inf) of O=C(N[C@H]1CC[C@](F)(CCN2CCN(c3cccc4sccc34)CC2)CC1)c1ccco1 only.
stdout: 4960

stdin: Answer with the recorded AUC(0-inf) of O=C(N[C@H]1CC[C@H](CCN2CCN(c3cccc4sccc34)CC2)CC1)c1ncco1 only.
stdout: 16500

stdin: Answer with the recorded AUC(0-inf) of CC(C)(O)C(=O)N[C@H]1CC[C@H](CCN2CCN(c3cccc4sccc34)CC2)CC1 only.
stdout: 13000

stdin: Answer with the recorded AUC(0-inf) of O=C(N[C@H]1CC[C@H](CCN2CCN(c3cccc4sccc34)CC2)CC1)C1(O)CC1 only.
stdout: 3890

====

Overview of reported pIC50 across a group of compounds:
- tgt: 5-HT2A receptor (Homo sapiens (Human))
- Sequence (P28223 whole entry): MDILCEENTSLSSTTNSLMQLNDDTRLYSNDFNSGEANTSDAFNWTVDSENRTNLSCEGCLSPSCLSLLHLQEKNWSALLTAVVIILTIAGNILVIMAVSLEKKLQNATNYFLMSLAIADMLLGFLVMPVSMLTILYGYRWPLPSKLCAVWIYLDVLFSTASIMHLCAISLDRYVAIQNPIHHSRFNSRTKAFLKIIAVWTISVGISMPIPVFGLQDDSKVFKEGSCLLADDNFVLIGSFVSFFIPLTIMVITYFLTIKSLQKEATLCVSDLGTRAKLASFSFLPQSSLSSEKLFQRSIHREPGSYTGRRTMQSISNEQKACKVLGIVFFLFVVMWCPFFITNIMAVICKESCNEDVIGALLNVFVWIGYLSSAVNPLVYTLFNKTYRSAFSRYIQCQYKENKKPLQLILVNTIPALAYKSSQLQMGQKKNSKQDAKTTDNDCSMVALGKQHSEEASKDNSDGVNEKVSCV
- experiment-description: Radioligand-receptor binding assay, 5-HT2A receptor ([3H]-Ketanserin)
- measurement-parameters: [3H]-Ketanserin 2 nM, human 5-HT2A receptor membrane; read-out: 5HT-2A binding activity IC50
A value of pIC50 is the negative decimal logarithm of a concentration given in moles per litre.

Completed entries (count: 5):
compound | pIC50
Cc1ccc(C(=O)N[C@H]2CC[C@H](CCN3CCN(c4cccc5sccc45)CC3)CC2)o1 | 9.04
O=C(N[C@H]1CC[C@H](CCN2CCN(c3cccc4sccc34)CC2)CC1)c1ncco1 | 9.43
C[C@@H]1CN(c2cccc3sccc23)CCN1CC[C@H]1CC[C@H](Nc2ncc(C#N)cn2)CC1 | 8.59
O=C(N[C@H]1CC[C@H](CCN2CCN(c3cccc4sccc34)CC2)CC1)N1CC(F)(F)C1 | 8.47
COCC(=O)N[C@H]1CC[C@H](CCN2CCN(c3cccc4sccc34)CC2)CC1 | 9.02

stdin: Determine reported pIC50 for CC(C)(O)C(=O)N[C@H]1CC[C@H](CCN2CCN(c3cccc4sccc34)CC2)CC1 ; test system: 5-HT2A receptor (Homo sapiens (Human)).
stdout: 9.37

stdin: Determine reported pIC50 for CCNC(=O)N[C@H]1CC[C@](F)(CCN2CCN(c3cccc4sccc34)CC2)CC1 ; test system: 5-HT2A receptor (Homo sapiens (Human)).
stdout: 8.68

====

- experiment-description: Toxicity test by repeated intragastric administration for 14 days in SD rats (with toxicokinetics)
- Type: in vivo, Sprague-Dawley (SD) rats
- measurement-parameters: both sexes, Sprague-Dawley, rat, in vivo, po; SD rats, intragastric once a day for two weeks; read-out: Maximum tolerated dose (MTD)
reported-metric: MTD at 14 days
A complete answer gives the number and then names the unit.

stdin: Answer with the recorded MTD at 14 days of O=C(N[C@H]1CC[C@H](CCN2CCN(c3cccc4sccc34)CC2)CC1)C1(O)CC1 only.
stdout: 30 mg/kg

====

- experiment-description: Pharmacokinetic assay in Balb/c mice (plasma and brain tissue)
- Assay type: in vivo
- measurement-parameters: male, Balb/c, mouse, po, Plasma, p.o. 5 mg/kg, read-out: Area under curve AUC0-t
Overview of reported AUC(0-t) across a group of compounds:
Report as a plain number; the unit ng·h/mL is understood.

Completed entries (count: 3):
structure-smiles | reported-metric | value-observed
O=C(N[C@H]1CC[C@](F)(CCN2CCN(c3cccc4sccc34)CC2)CC1)c1ccco1 | AUC(0-t) | 3070
O=C(N[C@H]1CC[C@H](CCN2CCN(c3cccc4sccc34)CC2)CC1)C1(O)CC1 | AUC(0-t) | 4240
O=C(N[C@H]1CC[C@H](CCN2CCN(c3cccc4sccc34)CC2)CC1)c1ncco1 | AUC(0-t) | 4140

Now look at this one.
stdin: Answer with the recorded AUC(0-t) of CC(C)(O)C(=O)N[C@H]1CC[C@H](CCN2CCN(c3cccc4sccc34)CC2)CC1 only.
stdout: 5210

All values here come from patent US12459931B2.
